Tested on: HEK-293T
assay.remarks: Incucyte cell viability with HEK293T; note: unitless GR value; below 1 slowed growth and below 0 cell loss
Type: toxicity, cell-based
measurement.conditions: human, 24 h, 10 µM, compound concentration 10 uM, replicate number 2, timepoint 24 hours
Where a SMILES comes first, the peptide text is derived from it. Bridges are numbered along the chain shown (N, C = ends). [ ]: non-standard residue; d: D form. Orn = NCCC[C@H](N)C(=O)O; Mpa = O=C(O)CCS
Classify: condition met when Growth Rate is strictly less than 0.5; condition not met when Growth Rate is not.

Answered examples (10):
1. Cc1cc(CN)cc(C)c1-c1ncn(C)c1-c1ccnc2cc(F)ccc12
condition not met
2. CC(C)(C)c1cc(NC(=O)Nc2ccc(-c3cn4c(n3)sc3cc(OCCN5CCOCC5)ccc34)cc2)no1
condition met
3. O=C(O)c1n[nH]c2c1C[C@H]1C[C@@H]21
condition not met
4. O=C(CCCc1ccccc1)Nc1nc2ccccc2c(=O)s1
condition not met
5. Cc1ccc(OCC(O)C(C)NC(C)C)c2c1CCC2.Cl (configuration not stated)
condition not met
6. CCCCCCCCc1ccc(CC[C@](N)(CO)COP(=O)(O)O)cc1
condition met
7. Cn1cc(C(=O)OCC2CCN(CCNS(C)(=O)=O)CC2)c2ccccc21
condition not met
8. COc1ccc2nc3ccc(OC)cc3c(SCCCN)c2c1.Cl
condition met
9. CN(C(=O)c1ccccc1)c1cc(N(C)c2ccc3c(c2)CCc2ccc(C(=O)NCCN4CCOCC4)cc2C3=O)ccc1F
condition met
10. NC(=O)c1ccc(CNC(=O)NC[C@H]2CN(Cc3ccc(Cl)c(Cl)c3)CCO2)cc1
condition not met

INPUT: Does `CCNC(=O)[C@H]1O[C@@H](n2cnc3c(N)ncnc32)[C@H](O)[C@@H]1O.O` have Growth Rate strictly under 0.5?
OUTPUT: condition not met

INPUT: Does `CCCCC/C=C\C/C=C\C/C=C\C/C=C\CCCC(=O)OC(CO)CO` have Growth Rate strictly under 0.5?
OUTPUT: condition not met

INPUT: Does `CC(=O)NCC(=O)N1[C@@H]2CC[C@H]1c1ccc(Nc3ncc(C(F)(F)F)c(NC4CCC4)n3)cc12` have Growth Rate strictly under 0.5?
OUTPUT: condition met

INPUT: Does `CCCN(CCC)[C@@H]1CCc2ccc3[nH]c(C#N)cc3c2C1.Cl` have Growth Rate strictly under 0.5?
OUTPUT: condition not met

INPUT: Does `O=C(Nc1cc(-c2cn[nH]c2)ccc1N1CCOCC1)c1ccc(-c2ccc3ncccc3c2)o1` have Growth Rate strictly under 0.5?
OUTPUT: condition met

INPUT: Does `OCCCNc1cc(-c2ccnc(Nc3cccc(Cl)c3)n2)ccn1` have Growth Rate strictly under 0.5?
OUTPUT: condition met

INPUT: Does `COc1ccccc1N1CCN(CCCCNC(=O)c2ccc3ccccc3c2)CC1.Cl` have Growth Rate strictly under 0.5?
OUTPUT: condition not met

INPUT: Does O=c1ccn([C@@H]2O[C@H](COP(=O)([O-])OP(=O)([O-])OP(=O)([O-])OP(=O)([O-])OC[C@H]3O[C@@H](n4ccc(=O)[nH]c4=O)[C@H](O)[C@@H]3O)[C@@H](O)[C@H]2O)c(=O)[nH]1.[Na+].[Na+].[Na+].[Na+] [DIQUAFOSOL TETRASODIUM] have Growth Rate strictly under 0.5?
OUTPUT: condition not met

INPUT: Does `CCCCCCCCCCCCC/C=C/[C@@H](O)[C@@H](N)COP(=O)([O-])OCC[N+](C)(C)C` have Growth Rate strictly under 0.5?
OUTPUT: condition not met

INPUT: Does `O=C1NC(=Nc2c(Cl)cccc2Cl)S/C1=C\c1ccc2nccnc2c1` have Growth Rate strictly under 0.5?
OUTPUT: condition met

INPUT: Does `O=c1ccn([C@@H]2O[C@H](COP(=O)([O-])OP(=O)([O-])OP(=O)([O-])O)[C@@H](O)[C@H]2O)c(=O)[nH]1.[Na+].[Na+].[Na+]` have Growth Rate strictly under 0.5?
OUTPUT: condition not met

INPUT: Does `CN[C@@H](C)C(=O)N[C@H](C(=O)N1CCC[C@H]1C(=O)Nc1snnc1-c1ccccc1)C1CCCCC1` have Growth Rate strictly under 0.5?
OUTPUT: condition not met

INPUT: Does `Cl.FC(F)(F)c1ccc(N2CCNCC2)nc1Cl` have Growth Rate strictly under 0.5?
OUTPUT: condition not met

INPUT: Does CCOc1ccc(C[C@H]2NC(=O)CCSSC[C@@H](C(=O)N3CCC[C@H]3C(=O)N[C@@H](CCCN)C(=O)NCC(N)=O)NC(=O)[C@H](CC(N)=O)NC(=O)[C@H]([C@@H](C)O)NC(=O)[C@H]([C@@H](C)CC)NC2=O)cc1 [ATOSIBAN] ([Mpa][dY](Et)ITNCP[Orn]G-NH2; disulfide 1-6) have Growth Rate strictly under 0.5?
OUTPUT: condition not met

INPUT: Does `O=C(O)c1cccc(/C=C2/C[C@@H]3[C@@H](/C=C/[C@H](O)C4CCCCC4)[C@H](O)C[C@@H]3O2)c1` have Growth Rate strictly under 0.5?
OUTPUT: condition not met

INPUT: Does `NCCc1cn(S(=O)(=O)c2c(Cl)nc3sccn23)c2ccccc12.O=C(O)C(=O)O` have Growth Rate strictly under 0.5?
OUTPUT: condition not met

---

Tested on: HEK-293T
assay.remarks: Incucyte cell viability with HEK293T; note: unitless GR value; below 1 slowed growth and below 0 cell loss
Assay type: toxicity, cell-based
measurement.conditions: human, 0 h, 10 µM, compound concentration 10 uM, replicate number 1, timepoint 0 hours
reported.endpoint: Growth Rate
Give the figure by itself; no unit, no explanation.

// recorded Growth Rate for CCCC(CCC)C(=O)O [VALPROIC ACID] : 0.84

// recorded Growth Rate for Cc1ccc2c(c1CCC(=O)O)CC[C@@H](NS(=O)(=O)c1ccc(Cl)cc1)C2 [TERUTROBAN] : 0.06

// recorded Growth Rate for `CC1=C(C)C(=O)C(C(C)(C)CC(=O)N(CCCCSC[C@H]2O[C@@H](n3cnc4c(N)ncnc43)[C@H](O)[C@@H]2O)Cc2cccc(-c3ccc(Cl)cc3)c2)=C(C)C1=O` : -0.9

// recorded Growth Rate for `O=C(Nc1cc(C(F)(F)F)ccc1N1CCCCC1)c1ccncc1` : 0.08

// recorded Growth Rate for `CC(/C=C1\SC(=S)N(CCCC(=O)Nc2ccc(C(=O)O)c(O)c2)C1=O)=C\c1ccccc1` : 0.57

// recorded Growth Rate for `N[C@@]1(C(=O)O)CC[C@H]2[C@H](C(=O)O)[C@H]21` : 0.6

---

Entries and their Growth Rate
System: HEK-293T
assay.remarks: Incucyte cell viability with HEK293T; note: unitless GR value; below 1 slowed growth and below 0 cell loss
Assay type: toxicity, cell-based
measurement.conditions: human, 6 h, 10 µM, compound concentration 10 uM, replicate number 2, timepoint 6 hours
Give the figure by itself; no unit, no explanation.

Past entries and their recorded results:
1) C[C@@H](c1ccc(F)cc1)n1nnc2cnc3ccc(-c4ccc5ocnc5c4)cc3c21
-0.31
2) CC(=O)c1ccc2c(c1)[C@@H]1C=CC[C@@H]1[C@H](c1cc3c(cc1Br)OCO3)N2
-0.36

Please find the next molecule below.
// recorded Growth Rate for `CN1CCc2cc(Cl)c(O)cc2[C@@H](c2ccccc2)C1.Cl` : 0.46

---

Entries and their Growth Rate
System: HEK-293T
assay.remarks: Incucyte cell viability with HEK293T; note: unitless GR value; below 1 slowed growth and below 0 cell loss
Assay type: toxicity, cell-based
measurement.conditions: human, 0 h, 10 µM, compound concentration 10 uM, replicate number 2, timepoint 0 hours
Give the figure by itself; no unit, no explanation.

1. N[C@](CC1c2ccccc2Oc2ccccc21)(C(=O)O)[C@H]1C[C@@H]1C(=O)O
-1
2. CCN1C(=CC(C)=O)Sc2ccc(OC)cc21
-1
3. C[C@H](NC(=O)CNC(=O)c1cccc(Cl)c1)c1ccccc1
0.84
4. Nc1nc(CC(=O)Nc2ccc(CCNC[C@H](O)c3ccccc3)cc2)cs1 [MIRABEGRON]
0.62

Please find the next compound below.
// recorded Growth Rate for CCC(=O)NC[C@@H]1C[C@H]1c1cccc2c1CCO2 [TASIMELTEON] : 0.1

---

System: HEK-293T
assay.remarks: Incucyte cell viability with HEK293T; note: unitless GR value; below 1 slowed growth and below 0 cell loss
Assay type: toxicity, cell-based
measurement.conditions: human, 24 h, 10 µM, compound concentration 10 uM, replicate number 1, timepoint 24 hours
reported.endpoint: Growth Rate
Give the figure by itself; no unit, no explanation.

Past entries and their recorded results:
1) CN[C@@H]1Cc2cccc3[nH]c(=O)n(c23)C1.O=C(O)/C=C\C(=O)O
0.79
2) C(#Cc1cccc(CN2CCOCC2)c1)CCN1CCCCC1
0.73
3) CSc1cc2c(cc1C(F)(F)F)N(C(=O)Nc1cccnc1)CC2
0.64
4) Cc1cc(C)cc([C@@H]2c3cc(C)ccc3NC(=O)CN2C(=O)c2ccc(Br)s2)c1
0.46

// recorded Growth Rate for `Cn1cc(-c2ccc3occ(-c4cccc(-c5ccncc5)c4)c3n2)cn1` : -0.43

---

System: Fibroblast
assay.remarks: Incucyte cell viability with human fibroblast; note: unitless GR value; below 1 slowed growth and below 0 cell loss
Type: toxicity, cell-based
measurement.conditions: 0 h, 10 µM, compound concentration 10 uM, replicate number 2, timepoint 0 hours
Classify: Condition met when Growth Rate is strictly less than 0.6; Condition not met when Growth Rate is not.

Answered examples (5):
1. Cc1nn(C)c2nc(NNC(=O)Nc3cc(Cl)nc(Cl)c3)cc(C(C)C)c12
Condition met
2. Cc1nnc2n1-c1sc(CCC(=O)N3CCOCC3)cc1C(c1ccccc1Cl)=NC2
Condition not met
3. CN1C[C@H](C(=O)N[C@]2(C)O[C@@]3(O)[C@@H]4CCCN4C(=O)[C@H](Cc4ccccc4)N3C2=O)C[C@@H]2c3cccc4[nH]cc(c34)C[C@H]21.CS(=O)(=O)O [DIHYDROERGOTAMINE MESYLATE]
Condition met
4. CO/C1=C/C(C)=C\[C@@H](C)[C@@H](O)[C@@H](C)C/C(C)=C\C=C/[C@H](OC)C([C@@H](C)[C@@H](O)[C@H](C)[C@@]2(O)C[C@@H](O)[C@H](C)[C@@H](C(C)C)O2)OC1=O (stereo partly specified)
Condition met
5. CSCC[C@H](NC(=O)[C@H](CC(C)C)NC(=O)CNC(=O)[C@H](Cc1ccccc1)N(C)C(=O)[C@H](Cc1ccccc1)NC(=O)[C@H](CC(=O)O)NC(=O)CCC(=O)O)C(N)=O [SENKTIDE]
Condition met

Alright, here's another compound for you.
INPUT: Does `CC(C)(C)c1cc(NC(=O)Nc2ccc(-c3cn4c(n3)sc3cc(OCCN5CCOCC5)ccc34)cc2)no1` have Growth Rate strictly under 0.6?
OUTPUT: Condition met
